- system-tested: T1, macaca GM-CSF (rhesus, Macaca mulatta; cynomolgus, Macaca fascicularis, identical sequence) (Macaca mulatta / Macaca fascicularis, UniProt Q0MUT8 18-144 (Chlorocebus aethiops entry), limits assumed)
- T1 chain: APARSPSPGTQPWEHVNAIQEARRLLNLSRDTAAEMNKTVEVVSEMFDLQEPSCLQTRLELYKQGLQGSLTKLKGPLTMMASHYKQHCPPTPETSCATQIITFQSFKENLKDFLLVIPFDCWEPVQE
- measurement-notes: cell-based or functional assay
# IC50 (pM), inhibition of GM-CSF induced TF-1 proliferation (32 pM GM-CSF, average n = 3) annotations
Response body: numeric value in pM, unit text excluded.

Example entries begin here.
* 4K21 hVH S55K-T62S hVL N28I-H34S-N53R-H93F (MSB0010628) (antibody, V domains shown, Tested as IgG ('optimized 4K21 IgGs'); the humanized parent is hIgG1 kappa; also called optimized 4K21 antibody; 4K21 (4K21 VH S55K-T62S VL N28I-H34S-N53R-H93F)) VH: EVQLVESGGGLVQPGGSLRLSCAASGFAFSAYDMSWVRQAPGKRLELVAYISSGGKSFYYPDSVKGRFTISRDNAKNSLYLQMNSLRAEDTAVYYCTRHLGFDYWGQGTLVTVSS VL: DIVMTQSPLSLPVTPGEPASISCRSSQSLVNSIGNTYLSWYLQKPGQSPQLLIYKVSRRFSGVPDRFSGSGSGTDFTLKISRVEAEDVGVYYCSQSTFVPPTFGQGTKVEIK | 72
* anti-GM-CSF 4K21 hIgG1 K antibody (MSB0010259), recombinant chimeric 4K21 (antibody, V domains shown, Murine variable domains fused to human constant IgG1 heavy chain and kappa light chain domains; also called parental chimeric 4K21) VH: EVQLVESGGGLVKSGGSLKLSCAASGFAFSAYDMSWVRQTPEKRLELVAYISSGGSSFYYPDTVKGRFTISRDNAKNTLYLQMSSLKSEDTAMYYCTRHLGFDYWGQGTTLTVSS VL: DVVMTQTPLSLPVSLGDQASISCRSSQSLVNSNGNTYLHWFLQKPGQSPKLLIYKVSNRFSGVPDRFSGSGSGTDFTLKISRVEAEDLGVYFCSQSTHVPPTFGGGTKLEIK | 1220
* humanized parental anti-GM-CSF 4K21 VH3-07.1AL+VK2-A3.2 hIgG1 K antibody (MSB0010439) (antibody, V domains shown, hIgG1 kappa; also called humanized parental 4K21 hVH hVL; humanized parental 4K21) VH: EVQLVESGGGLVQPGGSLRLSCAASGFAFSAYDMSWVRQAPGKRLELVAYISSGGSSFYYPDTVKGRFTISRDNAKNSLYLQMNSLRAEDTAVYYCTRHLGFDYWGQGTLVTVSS VL: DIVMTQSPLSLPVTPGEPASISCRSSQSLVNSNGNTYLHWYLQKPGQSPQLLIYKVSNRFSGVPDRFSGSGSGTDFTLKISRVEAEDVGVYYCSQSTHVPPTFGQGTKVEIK | 793

Proceed to the following item.
State its IC50 (pM), inhibition of GM-CSF induced TF-1 proliferation (32 pM GM-CSF, average n = 3) for this binder: 4K21 hVH S55K-T62S hVL S27eY-N28I-H34S-N53R-H93F (MSB0010629) (antibody, V domains shown, Tested as IgG ('optimized 4K21 IgGs'); the humanized parent is hIgG1 kappa; also called optimized 4K21 antibody with S27eY; 4K21 (4K21 VH S55K-T62S VL S27eY-N28I-H34S-N53R-H93F)) VH: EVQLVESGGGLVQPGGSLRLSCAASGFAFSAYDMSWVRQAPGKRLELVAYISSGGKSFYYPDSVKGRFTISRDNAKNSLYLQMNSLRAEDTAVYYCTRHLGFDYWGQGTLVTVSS VL: DIVMTQSPLSLPVTPGEPASISCRSSQSLVNYIGNTYLSWYLQKPGQSPQLLIYKVSRRFSGVPDRFSGSGSGTDFTLKISRVEAEDVGVYYCSQSTFVPPTFGQGTKVEIK
42
